Values compiled from paper PMC4796657.

Experimental system: SLC43A3 (equilibrative nucleobase transporter 1, ENBT1) (Homo sapiens, UniProt Q8NBI5)
Sequence (Q8NBI5 1-491): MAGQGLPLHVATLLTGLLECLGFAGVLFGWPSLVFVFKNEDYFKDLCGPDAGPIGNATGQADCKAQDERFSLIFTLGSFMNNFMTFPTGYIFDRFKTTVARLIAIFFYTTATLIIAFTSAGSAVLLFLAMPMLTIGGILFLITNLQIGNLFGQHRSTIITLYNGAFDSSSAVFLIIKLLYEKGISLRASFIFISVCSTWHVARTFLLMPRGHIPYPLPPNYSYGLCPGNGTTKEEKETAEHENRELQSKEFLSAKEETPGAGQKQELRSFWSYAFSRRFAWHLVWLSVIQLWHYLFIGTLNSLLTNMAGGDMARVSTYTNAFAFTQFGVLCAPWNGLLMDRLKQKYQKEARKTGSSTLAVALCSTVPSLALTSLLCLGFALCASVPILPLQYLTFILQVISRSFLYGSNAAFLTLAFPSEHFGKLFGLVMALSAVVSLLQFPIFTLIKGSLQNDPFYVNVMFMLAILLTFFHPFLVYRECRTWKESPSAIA
Test details: cell-based
Value kind: IC50 (µM)
One number for each entry, in µM.

*Q* Item O=c1[nH]cnc2nc[nH]c12 : provide IC50
*A* 350
